Data origin: patent EP4785956A2

- Target desc: T1, recombinant cynomolgus monkey C5 (cynomolgus monkey, UniProt P01031 19-1676 (human entry), limits assumed)
- T1 construct: also called cynoC5
- T1 chain: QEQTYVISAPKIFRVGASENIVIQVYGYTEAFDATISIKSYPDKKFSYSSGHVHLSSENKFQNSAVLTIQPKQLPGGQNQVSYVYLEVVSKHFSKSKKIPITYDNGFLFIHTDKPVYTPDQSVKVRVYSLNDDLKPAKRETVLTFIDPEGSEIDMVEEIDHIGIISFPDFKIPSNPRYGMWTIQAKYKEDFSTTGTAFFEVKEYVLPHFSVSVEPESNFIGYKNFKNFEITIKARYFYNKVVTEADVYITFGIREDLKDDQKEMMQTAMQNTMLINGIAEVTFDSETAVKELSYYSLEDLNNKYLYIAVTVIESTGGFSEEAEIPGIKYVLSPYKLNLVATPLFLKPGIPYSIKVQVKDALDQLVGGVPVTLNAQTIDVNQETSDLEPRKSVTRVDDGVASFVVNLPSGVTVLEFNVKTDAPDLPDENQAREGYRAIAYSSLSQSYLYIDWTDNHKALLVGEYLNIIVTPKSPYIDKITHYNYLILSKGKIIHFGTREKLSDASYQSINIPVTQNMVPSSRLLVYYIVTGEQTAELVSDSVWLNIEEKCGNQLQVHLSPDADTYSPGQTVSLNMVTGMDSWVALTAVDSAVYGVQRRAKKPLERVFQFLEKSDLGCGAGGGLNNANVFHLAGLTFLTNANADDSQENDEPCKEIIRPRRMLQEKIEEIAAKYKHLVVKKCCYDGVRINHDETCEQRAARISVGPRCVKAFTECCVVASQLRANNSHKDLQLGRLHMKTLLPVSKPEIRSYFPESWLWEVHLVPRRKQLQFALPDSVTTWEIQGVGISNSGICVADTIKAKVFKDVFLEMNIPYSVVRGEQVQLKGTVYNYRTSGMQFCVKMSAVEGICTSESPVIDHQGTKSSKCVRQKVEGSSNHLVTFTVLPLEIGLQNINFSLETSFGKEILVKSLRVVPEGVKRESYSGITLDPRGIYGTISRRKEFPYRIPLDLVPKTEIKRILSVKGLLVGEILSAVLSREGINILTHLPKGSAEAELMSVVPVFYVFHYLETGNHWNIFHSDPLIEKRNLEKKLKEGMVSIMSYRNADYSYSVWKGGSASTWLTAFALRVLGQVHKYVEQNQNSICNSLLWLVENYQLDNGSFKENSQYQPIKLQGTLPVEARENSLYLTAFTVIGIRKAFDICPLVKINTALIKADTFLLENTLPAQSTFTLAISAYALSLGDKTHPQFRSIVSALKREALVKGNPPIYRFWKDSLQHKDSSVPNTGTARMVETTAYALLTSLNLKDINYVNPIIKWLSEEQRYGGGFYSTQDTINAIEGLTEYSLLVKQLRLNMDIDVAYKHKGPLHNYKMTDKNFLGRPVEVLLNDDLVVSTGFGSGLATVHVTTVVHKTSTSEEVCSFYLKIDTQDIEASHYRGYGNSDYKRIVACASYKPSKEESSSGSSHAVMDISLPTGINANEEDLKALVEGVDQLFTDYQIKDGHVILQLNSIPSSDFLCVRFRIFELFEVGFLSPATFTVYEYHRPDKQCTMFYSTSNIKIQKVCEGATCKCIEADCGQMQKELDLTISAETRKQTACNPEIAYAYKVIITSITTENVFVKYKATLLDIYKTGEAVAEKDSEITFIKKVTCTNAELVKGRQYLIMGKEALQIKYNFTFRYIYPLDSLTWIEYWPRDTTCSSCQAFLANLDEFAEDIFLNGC
- Protocol description: SPR (BIACORE T200), antibody captured by ProA/G, recombinant cynoC5 injected, 37 degrees C, pH7.4

# Binder, kon / M⁻¹ s⁻¹
data = [
    ("CFA0666 (antibody, V domains shown) VH: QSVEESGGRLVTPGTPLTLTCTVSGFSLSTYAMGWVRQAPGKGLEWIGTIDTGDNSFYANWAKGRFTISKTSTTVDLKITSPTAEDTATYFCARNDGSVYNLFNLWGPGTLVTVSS VL: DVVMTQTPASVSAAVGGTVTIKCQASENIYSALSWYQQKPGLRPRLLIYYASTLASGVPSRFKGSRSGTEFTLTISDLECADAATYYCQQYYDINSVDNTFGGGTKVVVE", 314000),
    ("CFA0672 (antibody, V domains shown) VH: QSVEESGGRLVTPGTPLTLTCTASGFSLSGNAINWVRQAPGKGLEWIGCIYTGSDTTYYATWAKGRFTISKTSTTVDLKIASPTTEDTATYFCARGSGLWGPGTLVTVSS VL: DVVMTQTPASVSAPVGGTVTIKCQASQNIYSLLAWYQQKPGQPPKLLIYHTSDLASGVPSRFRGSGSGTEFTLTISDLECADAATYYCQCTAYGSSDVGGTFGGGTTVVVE", 641000),
    ("CFA0366 (antibody, V domains shown) VH: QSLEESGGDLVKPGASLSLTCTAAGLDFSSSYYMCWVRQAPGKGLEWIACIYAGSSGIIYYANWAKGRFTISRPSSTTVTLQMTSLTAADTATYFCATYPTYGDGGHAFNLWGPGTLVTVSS VL: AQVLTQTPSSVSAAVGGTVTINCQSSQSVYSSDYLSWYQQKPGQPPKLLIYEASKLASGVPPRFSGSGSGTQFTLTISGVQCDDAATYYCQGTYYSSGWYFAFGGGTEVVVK", 504000),
]
